Please go through the items and note down their TGI.
tested on: OVCAR-3 ovarian; assay: NCI tumour cell line growth inhibition, 48 h
Answers are plain numbers, in µM.

Known TGI results, listed for orientation:
>>> experimental_result("C=CC(Br)(CBr)CCC(Br)C(C)(C)Cl (stereo unspecified)")
5.25
>>> experimental_result("O=S(=O)(c1ccccc1)n1cc(C[P+](c2ccccc2)(c2ccccc2)c2ccccc2)c2ccccc21")
13.5

Could you now consider this next compound?
Problem: What measured TGI goes with "Oc1cccc(/C=N/Nc2nnc(N/N=C/c3cccc(O)c3)c3ccccc23)c1" ?
Solution: 35.8

###

tested on: DMS 273 small cell lung; assay: NCI tumour cell line growth inhibition, 48 h
Experimental readout: TGI (µM)
Numbers only, in µM.

Known TGI results, listed for orientation:
>>> experimental_result("C/C(=N\\N=C(\\[Se])N(C)C)c1ccccn1")
5.29
>>> experimental_result("CC1(C)C(=O)/C=C\\C(=O)C(C)(C)C(=O)/C=C\\C(=O)C(C)(C)C(=O)/C=C\\C(=O)C(C)(C)C(=O)/C=C\\C1=O")
37.4

Could you now consider this next molecule?
Problem: What measured TGI goes with "COC(=O)C(CBr)CBr" ?
Solution: 29.3

###

test system: NCI-H226 lung; assay: NCI tumour cell line growth inhibition, 48 h
Please go through the items and note down their TGI.

Known TGI results, listed for orientation:
>>> experimental_result("CC(C)(C)c1cc(OCc2nnc3sc(=S)[nH]n23)c(Cl)cc1OCc1nnc2sc(=S)[nH]n12")
"> 100 µM"
>>> experimental_result("CC(=O)c1cccc(NC(=O)C(=O)C(c2cnc3ccc([N+](=O)[O-])cc3n2)[N+](=O)[O-])c1 (stereo not drawn)")
"> 100 µM"

Could you now consider this next compound?
Problem: What measured TGI goes with "O=c1[nH]nc(Cn2c3ccc(Br)cc3c3nc4ccccc4nc32)n1C1CCCCC1" ?
Solution: > 100 µM

###

Please go through the items and note down their TGI.
test system: NCI-H23 lung; test: NCI tumour cell line growth inhibition, 48 h

Known TGI results, listed for orientation:
>>> experimental_result("CCOC(=O)c1nc2ccccc2nc1Oc1cc(OC)c(OC)c(OC)c1")
"> 100 µM"
>>> experimental_result("CCOC(=O)CCC(NC(=O)OCc1ccccc1)C(=O)NC(CCC(=O)OCC)C(=O)NNC(=O)OC(C)(C)C (stereo not drawn)")
"> 100 µM"

Could you now consider this next compound?
Problem: // fetch NCI-H23 lung TGI for "CN[C@@H](C)[C@H](N)c1ccccc1"
Solution: > 100 µM

###

test system: A498 renal; experiment: NCI tumour cell line growth inhibition, 48 h
Where a SMILES comes first, the peptide text is derived from it. [ ]: non-standard residue; d: D form. The star is where a group is joined. ξ: configuration not given here. ξF = NC(Cc1ccccc1)C(=O)O; Cbz = O=C(OCc1ccccc1)*; Aib = CC(C)(N)C(=O)O
Please go through the items and note down their TGI.

Known TGI results, listed for orientation:
>>> experimental_result("C[C@]1(Cn2ccnn2)C(C(=O)O)N2C(=O)CC2S1(=O)=O (some centres not stated)")
"> 100 µM"
>>> experimental_result("N#Cc1c(N)nc(N)nc1N[C@H](c1nc2c(F)ccc(Cl)c2c(=O)n1-c1cccnc1)C1CC1")
"1.55 µM"
>>> experimental_result("CC(=O)[CH-]C(=O)c1ccccc1.CC(=O)[CH-]C(=O)c1ccccc1.Cl.[O-]c1ccccn1.[O-]c1ccccn1.[Ti+4]")
"> 100 µM"
>>> experimental_result("COc1cc(C2C3=C(COC3=O)Nc3c2ccc2c3CCCC2)cc2c1OCO2 (configuration not stated)")
"0.175 µM"
>>> experimental_result("CC(C)(C)OC(=O)c1ccc(NCC2=CC(=O)C=CC2=O)cc1")
"30.9 µM"

Quick batch: TGI for everything below.
1. CCOC(=O)c1oc2ccc([N+](=O)[O-])c3c2c1CCC3
2. CN(C)CC1CCCCCCCCCC(CN(C)C)C1=O (configuration not stated)
3. NC(N)=Nc1nc2ccc([N+](=O)[O-])cc2[nH]1
4. Cc1c(N/C=C(\C#N)C(=O)c2ccc(Cl)cc2)c(=O)n(-c2ccccc2)n1C
5. CCN(CC)C(=O)N1CCN(C=S)CC1
6. c1cncc(C2Nc3cccc4cccc(c34)N2)c1

Solution:
> 100 µM
> 46.2 µM
> 100 µM
> 100 µM
> 100 µM
> 100 µM

Quick batch: TGI for everything below.
1. O=C(O)CNn1c(SCC(=O)O)nnc(/C=C/c2c(O)ccc3ccccc23)c1=O
2. CC(C)(C)c1cc(OCc2nnc3sc(=S)[nH]n23)c(Cl)cc1OCc1nnc2sc(=S)[nH]n12
3. Cc1[nH]c(-c2nc3ccccc3[nH]2)c(C)c1C(=O)NC(C)C1CCCCC1 (configuration not stated)
4. O=C(O)C1(Cc2ccc3c(c2)CCC3)Cc2ccccc2C1
5. CN[C@@H](C)[C@H](N)c1ccccc1
6. N#Cc1nc(-c2ccccn2)oc1N

Solution:
1. > 100 µM
2. 88.7 µM
3. 20.1 µM
4. > 100 µM
5. > 100 µM
6. > 100 µM

Quick batch: TGI for everything below.
1. COC(=O)C(C)(C)NC(=O)C(Cc1ccccc1)NC(=O)C(C)(C)NC(=O)OCc1ccccc1 (configuration not stated) (Cbz-[Aib]-[ξF]-[Aib]-OMe)
2. N=C(N)c1ccc(-c2ccc(-c3cccs3)s2)s1
3. CC(CNCCCNCCNCCCNCO)[N+](=O)[O-] (configuration not stated)
4. O=C(CC1(O)C(=O)Nc2ccccc21)c1ccc(O)cc1 (configuration not stated)
5. COc1c(-c2ccc(O)c(O)c2)oc2c(O)c(O)cc(O)c2c1=O

Solution:
1: > 100 µM; 2: 0.846 µM; 3: 32.3 µM; 4: > 100 µM; 5: > 100 µM
